Tested on: tHS68 cells
Assay: Cell cycle arrest in CDK4/6-dependent cells, propidium iodide flow cytometry
Assay type: cell-based
Details: tHS68 cells, 24 hours; read-out: G1 cell cycle arrest EC50
readout: EC50

input_smiles=CN1CCN(c2ccc(Nc3ncc4cc5n(c4n3)C3(CCCCC3)CNC5=O)nc2)CC1 system="tHS68 cells" measurement="80 nM"
